- test description: NCI Yeast Anticancer Drug Screen. Data for the mgt1 strain (AID 153)
- measurement context: S. cerevisiae mgt1 mutant growth inhibition; at 3.7 µM; hits give high values
The panel holds about 79,000 compounds, 15% with a hit somewhere; the sample as a whole holds those more often.
measured property: growth inhibition (%)
Please give a number only; it is taken to be in %.

- compound: "CS(=O)(=O)OCCN(CCOS(C)(=O)=O)c1ccc(C=O)cc1"
  measured property: "growth inhibition"
  unit of measure: "%"
  numeric result: 13
- compound: "CCC1(O)C(=O)OCc2c1cc1n(c2=O)Cc2cc3ccccc3nc2-1 (configuration not stated)"
  measured property: "growth inhibition"
  unit of measure: "%"
  numeric result: -3
- compound: "Cc1nc2ccccc2cc1C[N+]12CN3CN(CN(C3)C1)C2"
  measured property: "growth inhibition"
  unit of measure: "%"
  numeric result: 5
- compound: "Oc1ccc2nc3ccccc3nc2c1"
  measured property: "growth inhibition"
  unit of measure: "%"
  numeric result: -5
- compound: "O=C1c2ccccc2C(=O)C(Cl)C1Cl (configuration not stated)"
  measured property: "growth inhibition"
  unit of measure: "%"
  numeric result: 13
- compound: "O=P(Oc1ccc(Cl)cc1)(Oc1ccc(Cl)cc1)N1CC1"
  measured property: "growth inhibition"
  unit of measure: "%"
  numeric result: -3
- compound: "c1ccc2cc3n[se]nc3cc2c1"
  measured property: "growth inhibition"
  unit of measure: "%"
  numeric result: 7
- compound: "Cc1c(N)nc([C@H](CC(N)=O)NC[C@H](N)C(N)=O)nc1C(=O)N[C@H](C(=O)N[C@H](C)[C@@H](O)[C@H](C)C(=O)N[C@H](C(=O)NCCc1nc(-c2nc(C(=O)NCCC[S+](C)C)cs2)cs1)[C@@H](C)O)C(OC1OC(CO)C(O)C(O)C1OC1OC(CO)C(O)C(OC(N)=O)C1O)c1cnc[nH]1 (some centres not stated)"
  measured property: "growth inhibition"
  unit of measure: "%"
  numeric result: 2
- compound: "CCOP(=S)(S)OCC.[Pd]"
  measured property: "growth inhibition"
  unit of measure: "%"
  numeric result: 17
- compound: "Nc1nnc(N)n1-n1c(N)nnc1N"
  measured property: "growth inhibition"
  unit of measure: "%"
  numeric result: -4

(Q) If you can, please state the reported growth inhibition value of CC1=C(CO)C2=C(C)C3(CC3)[C@@](C)(O)C(=O)C2=C1 .
(A) -1

(Q) If you can, please state the reported growth inhibition value of BrCC[N+]12CC[N+](CCBr)(CC1)C2 .
(A) -2

(Q) If you can, please state the reported growth inhibition value of O=[N+]([O-])c1oc2ccc3ccccc3c2c1CCO .
(A) 27

(Q) If you can, please state the reported growth inhibition value of NCCc1ccc(OCc2ccccc2)c(OCc2ccccc2)c1 .
(A) 13

(Q) If you can, please state the reported growth inhibition value of C[C@]12CCc3nonc3C1CC[C@@H]1C2CC[C@]2(C)C(=O)CCC12 (some centres not stated) .
(A) 6

(Q) If you can, please state the reported growth inhibition value of COc1cc2ccccc2c2cc([N+](=O)[O-])oc12 .
(A) 11

====

- test description: NCI Yeast Anticancer Drug Screen. Data for the wt2 strain (AID 169);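 also: 0% = growth of vehicle-treated yeast cultures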
- measurement context: S. cerevisiae wt2 strain growth inhibition; at 100.0 µM
Compounds without any hit were thinned out: in the full panel of roughly 79,000, 15% have a hit. The source made the active and inactive calls. Cut-off read from the data, not from the text of the source: active = growth inhibition above about 70%; inactive = the rest.
Respond with a class label; see yes = active, no = inactive

- molecule: "Cc1ccc2c(c1N)C(=O)c1ccccc1C2=O"
  class: "no"

(Q) Check the results log: what was the call for C[C@]12CC[C@H](O)CC1=CC[C@@H]1[C@@H]2CC[C@]2(C)C(=O)CC[C@@H]12 ?
(A) yes

(Q) Check the results log: what was the call for C/C(=N\O)c1ccc2ccc3ccccc3c2c1 ?
(A) yes

(Q) Check the results log: what was the call for CC12CCC(C1)C(C)(C)C2OC(=O)c1ccccc1N (stereo unspecified) ?
(A) no

(Q) Check the results log: what was the call for [N-]=[N+]=C1C(Cl)=C(Cl)C(Cl)=C1Cl ?
(A) yes

(Q) Check the results log: what was the call for COc1cc([C@@H]2c3cc4c(cc3C[C@@H]3COC(=O)C32)OCO4)cc(OC)c1O (stereo partly specified) ?
(A) yes
